Numbers sourced from PubChem BioAssay (NCATS).

assay: qHTS for Inhibitors of the Functional Ribonucleoprotein Complex (vRNP) of Lassa (LASV) Arenavirus: Viability assay - alamar blue signal for LASV Primary Screen (AID 1347083); settings: cell viability, alamar blue fluorescence (LASV minigenome counter-screen); series mostly up to 57.5 µM; note: nearly all actives have a fitted effect of over 80% in size
Inconclusive results are not listed. Active and inactive are the calls of the source. Calls come from the whole dose curve; tested in HEK293 reporter line.
Permitted responses: active, inactive

These solved cases illustrate the format of a correct answer.
CC1(O)CC(c2nc(-c3ccc4ccc(-c5ccccc5)nc4c3)c3c(N)nccn23)C1 (stereo not given)	active
O=c1[nH]c2ccc(Cl)cc2c(N[C@@H]2CN3CCC2CC3)c1-c1nc2ccccc2[nH]1	active
NC1CCc2cc(O)c(O)cc2C1 (stereo not given)	inactive
CCN(CC)CCc1nc(-c2ccccc2)no1	inactive
C1=CC2C3C=CC(C3)C2C1 (stereo not given)	inactive

Per the assay record, what outcome was assigned to Cc1[nH]nc2ccc(-c3cncc(OC[C@@H](N)Cc4ccccc4)c3)cc12 ?
active

Hi, sorry to bother you, what did the test record for COc1cc2nc(N3CCCN(C)CC3)nc(NC3CCN(Cc4ccccc4)CC3)c2cc1OC ?
active

Could you check what this test reported for CC[C@@H]1C(=O)N(C)c2cnc(Nc3ccc(C(=O)NC4CCC(N5CCN(CC6CC6)CC5)CC4)cc3OC)nc2N1C(C)C (stereo not given in full) ?
active

Recorded call for COc1c(N2CCNC(C)C2)c(F)cc2c(=O)c(C(=O)O)cn(C3CC3)c12 (stereo not given) ?
inactive

Per the assay record, what outcome was assigned to Cc1nc(N)sc1-c1ccnc(Nc2ccc(N3CCOCC3)cc2)n1 ?
active
